# Test system: TO-3-N3-2 (biotin conjugate)
# method: pull-down binding Z-score (relative to library population); higher = stronger binding
# condition-info: RNA library: Library-2
Classify by measured pull-down binding Z-score: Satisfied if it is equal to or exceeds -0.01, Not satisfied if it is smaller.

construct_sequence="GGUUUGUUGCC [IAV_invivo_PB1_2_Motif_26+IAV_invivo_PB1_2_Motif_26]" class_assignment="Not satisfied"
construct_sequence=CCAGAGAAGAAACUGG class_assignment=Satisfied
construct_sequence="AUAGUUUAGAAUUACAUCAAGGGAGAUAACUGU [hsa-let-7a-2]" class_assignment=Satisfied
construct_sequence="UUUCAGAUAACUCGGGA [hsa-mir-4320]" class_assignment="Not satisfied"
construct_sequence=GGAAGACCUUAAAUUCCCUCGAGGACAAGGCGUUCC class_assignment="Not satisfied"
construct_sequence="UAGGCCCACUGCUCAGUGGAGC [hsa-mir-7847]" class_assignment="Not satisfied"
construct_sequence="CCUGAAUCUUGG [IAV_invivo_PB1_2_Motif_21+IAV_invivo_PB1_2_Motif_21]" class_assignment="Not satisfied"
construct_sequence="CCUUCUAAUGAGUAUGCUUAACUUGGUAGAAGG [hsa-mir-3914-1]" class_assignment="Not satisfied"
construct_sequence="UACAAACUUGUG [DMSMaPseq_invitro_SARS-CoV-2_Motif_398]" class_assignment="Not satisfied"
construct_sequence="ACAAUAUGCUAUUAUAAUCGUAUGGCAUUGU [hsa-mir-2355]" class_assignment="Not satisfied"
construct_sequence="GCAGGUAGCUUUUUGAGAUCUACUGC [hsa-mir-106a]" class_assignment=Satisfied

All values here come from the supplement of paper PMC11865577.
